target: T1, EGFI-Cr1 wild type (first EGF-like repeat of human EpCAM fused to the constant region of human immunoglobulin … (human, UniProt P01857-1 99-330 = IgG part)); experiment: direct ELISA, coated EGFI-Cr1 fusion, 0.1 µg/ml antibody
T1 construct: cDNA covered aa 1-63; Expressed in COS-7 cells; also called WT; EpCAM EGF-1 fusion protein WT
Below, each entry is listed with its recorded relative binding activity (% of WT).
Answer format: number, then unit.

Binder: murine monoclonal antibody 4D2 (antibody, mouse IgG1, V domains shown, Mouse IgG1, kappa, from hybridoma; also called m338-4D2.20) VH: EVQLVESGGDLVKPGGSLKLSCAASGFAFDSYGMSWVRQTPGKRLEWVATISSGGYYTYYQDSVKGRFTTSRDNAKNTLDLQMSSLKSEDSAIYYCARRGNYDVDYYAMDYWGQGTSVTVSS VL: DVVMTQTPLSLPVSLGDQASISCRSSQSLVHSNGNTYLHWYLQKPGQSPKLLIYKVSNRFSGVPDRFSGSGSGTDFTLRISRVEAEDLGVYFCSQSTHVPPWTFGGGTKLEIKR
relative binding activity (% of WT): 100%

Binder: murine monoclonal antibody 12H8 (antibody, mouse IgG2a, V domains shown, Mouse IgG2a, kappa, from hybridoma; also called m342-12H8.3; m12H8) VH: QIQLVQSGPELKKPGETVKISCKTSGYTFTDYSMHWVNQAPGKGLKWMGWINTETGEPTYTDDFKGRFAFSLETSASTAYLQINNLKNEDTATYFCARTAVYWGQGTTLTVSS VL: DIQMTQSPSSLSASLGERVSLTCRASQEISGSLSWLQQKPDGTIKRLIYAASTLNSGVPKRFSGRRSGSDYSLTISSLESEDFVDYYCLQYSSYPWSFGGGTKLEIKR
relative binding activity (% of WT): 100%

Request the reported relative binding activity (% of WT) associated with murine monoclonal antibody 1F10 (antibody, mouse IgG1, V domains shown, Mouse IgG1, lambda 1, from hybridoma; also called m338-1F10.3) VH: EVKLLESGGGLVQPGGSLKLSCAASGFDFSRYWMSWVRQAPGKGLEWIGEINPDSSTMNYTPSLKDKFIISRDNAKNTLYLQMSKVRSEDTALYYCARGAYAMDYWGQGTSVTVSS VL: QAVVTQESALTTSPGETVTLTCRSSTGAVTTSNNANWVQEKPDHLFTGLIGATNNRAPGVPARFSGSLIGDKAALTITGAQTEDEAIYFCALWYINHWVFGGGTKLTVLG
100%

These measurements were taken from patent US20110165161A1.
